# refractive index per entry
Assay: refractive index (Na D-line) (dimensionless)
Conditions: 298.15 K; 101.33 kPa; Liquid; Standard Abbe refractometry
# print the numeric value only

Below are worked cases with known answers.
[
  {
    "compound": "O=C([O-])C(F)(F)F.[NH3+]CCCO [3-hydroxypropylammonium trifluoroacetate]",
    "refractive index": 1.4101
  },
  {
    "compound": "CCC[NH3+].O=C[O-] [propylammonium formate]",
    "refractive index": 1.4386
  },
  {
    "compound": "CC(=O)[O-].[NH3+]CCCO [3-hydroxypropylammonium acetate]",
    "refractive index": 1.4652
  },
  {
    "compound": "O=C[O-].[NH3+]CCCO [3-hydroxypropylammonium formate]",
    "refractive index": 1.4667
  }
]

Next item in the queue.
## Input refractive index for CC(=O)[O-].CCC[NH3+] [propylammonium acetate] ?
## Output 1.4369

* * *

Conditions: 333.15 K, Ring tensiometer
Reported surface tension liquid-gas is given for each of the following compounds.
// return numeric value only (unit: mN/m, not printed)

[
  {
    "compound": "CC(=O)[O-].CCC[NH3+] [propylammonium acetate]",
    "unit tag": "mN/m",
    "surface tension liquid-gas": 30.2
  }
]

## Input Given the compound O=C[O-].[NH3+]CCCO [3-hydroxypropylammonium formate] , what is its reported surface tension liquid-gas?
## Output 53

## Input Reported surface tension liquid-gas, compound O=C([O-])C(F)(F)F.[NH3+]CCCO [3-hydroxypropylammonium trifluoroacetate] : ____
## Output 34.9

## Input Reported surface tension liquid-gas for CC(=O)[O-].[NH3+]CCCO [3-hydroxypropylammonium acetate] : what is it?
## Output 44

## Input What does the data say about its surface tension liquid-gas? Entry: CCC[NH3+].O=C[O-] [propylammonium formate]
## Output 34.6

* * *

Details: 328.15 K, Ring tensiometer
measured parameter: surface tension liquid-gas (mN/m)
Please give a number only; it is taken to be in mN/m.

[
  {
    "molecule": "CC(=O)[O-].CCC[NH3+] [propylammonium acetate]",
    "surface tension liquid-gas / mN/m": 30.6
  },
  {
    "molecule": "CCC[NH3+].O=C[O-] [propylammonium formate]",
    "surface tension liquid-gas / mN/m": 35
  }
]

## Input Consider the molecule CC(=O)[O-].[NH3+]CCCO [3-hydroxypropylammonium acetate] and give its measured surface tension liquid-gas.
## Output 44.5

## Input Which surface tension liquid-gas value is on record for O=C([O-])C(F)(F)F.[NH3+]CCCO [3-hydroxypropylammonium trifluoroacetate] ?
## Output 35.3

## Input // lookup surface tension liquid-gas for O=C[O-].[NH3+]CCCO [3-hydroxypropylammonium formate]
## Output 53.5

* * *

Details: 333.15 K; 101.33 kPa; Liquid; Alternating current cell with electrodes
measured parameter: electrical conductivity (S/m)
Unit S/m implied. Number only.

Example entries begin here.
[
  {
    "compound": "O=C[O-].[NH3+]CCCO [3-hydroxypropylammonium formate]",
    "electrical conductivity (S/m)": 0.49
  },
  {
    "compound": "CC(=O)[O-].[NH3+]CCCO [3-hydroxypropylammonium acetate]",
    "electrical conductivity (S/m)": 0.06
  },
  {
    "compound": "CC(=O)[O-].CCC[NH3+] [propylammonium acetate]",
    "electrical conductivity (S/m)": 0.33
  }
]

## Input For the compound shown here, O=C([O-])C(F)(F)F.[NH3+]CCCO [3-hydroxypropylammonium trifluoroacetate] , give the reported electrical conductivity.
## Output 0.31

## Input GET /values?readout=electrical conductivity&item= CCC[NH3+].O=C[O-] [propylammonium formate]
## Output 1

* * *

# log10 electrical conductivity listing for each entry below
Settings: 323.15 K; 101.33 kPa; Liquid; Alternating current cell with electrodes
Hey, these are logged values: log10 of electrical conductivity, S/m being the unit before logging.

[
  {
    "compound": "CC(=O)[O-].CCC[NH3+] [propylammonium acetate]",
    "log10 electrical conductivity": -0.66
  },
  {
    "compound": "O=C[O-].[NH3+]CCCO [3-hydroxypropylammonium formate]",
    "log10 electrical conductivity": -0.44
  },
  {
    "compound": "CC(=O)[O-].[NH3+]CCCO [3-hydroxypropylammonium acetate]",
    "log10 electrical conductivity": -1.40
  },
  {
    "compound": "O=C([O-])C(F)(F)F.[NH3+]CCCO [3-hydroxypropylammonium trifluoroacetate]",
    "log10 electrical conductivity": -0.70
  }
]

## Input Would you kindly share the measured log10 electrical conductivity for CCC[NH3+].O=C[O-] [propylammonium formate] ?
## Output -0.11

* * *

Test: refractive index (Na D-line) (dimensionless)
Details: 328.15 K; 101.33 kPa; Liquid; Standard Abbe refractometry
measured parameter: refractive index
// keep it numeric: no unit symbol after the value

[
  {
    "compound": "O=C([O-])C(F)(F)F.[NH3+]CCCO [3-hydroxypropylammonium trifluoroacetate]",
    "obs value": 1.4032
  },
  {
    "compound": "CC(=O)[O-].[NH3+]CCCO [3-hydroxypropylammonium acetate]",
    "obs value": 1.4581
  },
  {
    "compound": "CCC[NH3+].O=C[O-] [propylammonium formate]",
    "obs value": 1.4295
  },
  {
    "compound": "CC(=O)[O-].CCC[NH3+] [propylammonium acetate]",
    "obs value": 1.4287
  }
]

## Input Would you kindly share the measured refractive index for O=C[O-].[NH3+]CCCO [3-hydroxypropylammonium formate] ?
## Output 1.4598

* * *

Assay: refractive index (Na D-line) (dimensionless)
Conditions: 293.15 K; 101.33 kPa; Liquid; Standard Abbe refractometry
measured parameter: refractive index
Number, no unit, nothing else.

Record excerpt, results attached:
[
  {
    "compound": "CCC[NH3+].O=C[O-] [propylammonium formate]",
    "refractive index": 1.44
  },
  {
    "compound": "O=C([O-])C(F)(F)F.[NH3+]CCCO [3-hydroxypropylammonium trifluoroacetate]",
    "refractive index": 1.4113
  },
  {
    "compound": "CC(=O)[O-].CCC[NH3+] [propylammonium acetate]",
    "refractive index": 1.4383
  },
  {
    "compound": "CC(=O)[O-].[NH3+]CCCO [3-hydroxypropylammonium acetate]",
    "refractive index": 1.4663
  }
]

Attention now turns to another entry.
## Input // returns reported refractive index for input O=C[O-].[NH3+]CCCO [3-hydroxypropylammonium formate]
## Output 1.4678

* * *

Settings: 293.15 K; 101.33 kPa; Liquid; Alternating current cell with electrodes
// electrical conductivity lookup, one value per entry
Report only the number, with the unit S/m understood.

Before answering, review these 4 worked examples.
[
  {
    "compound": "CC(=O)[O-].CCC[NH3+] [propylammonium acetate]",
    "electrical conductivity, S/m": 0.04
  },
  {
    "compound": "CC(=O)[O-].[NH3+]CCCO [3-hydroxypropylammonium acetate]",
    "electrical conductivity, S/m": 0.01
  },
  {
    "compound": "O=C([O-])C(F)(F)F.[NH3+]CCCO [3-hydroxypropylammonium trifluoroacetate]",
    "electrical conductivity, S/m": 0.03
  },
  {
    "compound": "CCC[NH3+].O=C[O-] [propylammonium formate]",
    "electrical conductivity, S/m": 0.31
  }
]

// next item, electrical conductivity requested
## Input What value of electrical conductivity has been reported for the following compound? O=C[O-].[NH3+]CCCO [3-hydroxypropylammonium formate]
## Output 0.11

* * *

Settings: 328.15 K; 101.33 kPa; Liquid; Alternating current cell with electrodes
# log10 electrical conductivity per entry
Log scale reminder: electrical conductivity in S/m, then log10 taken.

Check out these entries, answers already filled in.
[
  {
    "compound": "CCC[NH3+].O=C[O-] [propylammonium formate]",
    "measured parameter": "log10 electrical conductivity",
    "obs value": -0.06
  },
  {
    "compound": "CC(=O)[O-].[NH3+]CCCO [3-hydroxypropylammonium acetate]",
    "measured parameter": "log10 electrical conductivity",
    "obs value": -1.30
  },
  {
    "compound": "CC(=O)[O-].CCC[NH3+] [propylammonium acetate]",
    "measured parameter": "log10 electrical conductivity",
    "obs value": -0.57
  },
  {
    "compound": "O=C[O-].[NH3+]CCCO [3-hydroxypropylammonium formate]",
    "measured parameter": "log10 electrical conductivity",
    "obs value": -0.38
  }
]

With those in mind, consider the next compound.
## Input Bench note: what log10 electrical conductivity did O=C([O-])C(F)(F)F.[NH3+]CCCO [3-hydroxypropylammonium trifluoroacetate] show?
## Output -0.60
